Some binders, each annotated with its measured EC50.
# tested target: T1, CAR-FITC (CD8 hinge), anti-FITC (FITC-E2 scFv) chimeric antigen receptor on T cells
# T1 construct: FITC-E2 scFv, CD8 hinge and transmembrane region, 41BB and CD3 zeta; also called Anti FITC CAR-EC with CD8 hinge; anti-FITC CAR
# T1 sequence (chain, as listed by the source mutant limits assumed): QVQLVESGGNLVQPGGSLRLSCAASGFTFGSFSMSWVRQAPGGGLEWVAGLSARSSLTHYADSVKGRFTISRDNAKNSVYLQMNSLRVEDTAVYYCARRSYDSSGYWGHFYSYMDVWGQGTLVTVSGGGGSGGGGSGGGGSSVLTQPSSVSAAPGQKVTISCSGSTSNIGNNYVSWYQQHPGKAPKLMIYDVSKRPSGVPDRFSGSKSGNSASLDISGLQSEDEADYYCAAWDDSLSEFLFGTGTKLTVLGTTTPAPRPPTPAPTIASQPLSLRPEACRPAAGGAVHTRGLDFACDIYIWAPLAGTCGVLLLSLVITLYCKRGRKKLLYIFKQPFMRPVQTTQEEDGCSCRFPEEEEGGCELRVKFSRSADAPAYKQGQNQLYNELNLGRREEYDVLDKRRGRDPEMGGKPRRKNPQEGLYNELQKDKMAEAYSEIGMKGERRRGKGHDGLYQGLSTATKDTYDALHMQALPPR
# experimental details: flow cytometry on anti-FITC CAR T cells, Alexa Fluor 647 anti-human IgG or anti-human kappa secondary antibody, MFI against concentration
# Protocol: Cells were incubated with indicated switch antibodies at 4° C. for 30-60 min and washed twice with staining buffer (1% BSA in PBS). […] After several washes, samples were acquired on a BD LSR II or BD Accuri C6 and analyzed using FlowJo 7.6.2 software. Briefly, cells were incubated with indicated switch antibodies at 4° C. for 30-60 min and washed twice with staining buffer (1% BSA in PBS). […]
# output: bare number, implied unit pM

Here is how some binders turned out for EC50.
>>> recorded_number("anti-CD19 (FMC63) Fab AB-FITC (light chain G68 and heavy chain S74) (Fab, V domains shown, position 74 = pAzF conjugated with BCN-PEG4-FITC; position 68 = pAzF conjugated with BCN-PEG4-FITC, Bivalent, proximal sites; also called anti-CD19 AB-FITC; LG68/HS74) VH: EVKLQESGPGLVAPSQSLSVTCTVSGVSLPDYGVSWIRQPPRKGLEWLGVIWGSETTYYNSALKSRLTIIKDNSKSQVFLKMNSLQTDDTAIYYCAKHYYYGGSYAMDYWGQGTSVTVSS VL: DIQMTQTTSSLSASLGDRVTISCRASQDISKYLNWYQQKPDGTVKLLIYHTSRLHSGVPSRFSGSGSGTDYSLTISNLEQEDIATYFCQQGNTLPYTFGGGTKLEIKR")
3.4
>>> recorded_number("anti-CD19 (FMC63) Fab EF-FITC (light chain S202 and heavy chain K136) (Fab, V domains shown, position 136 of the whole heavy chain = pAzF conjugated with BCN-PEG4-FITC; position 202 of the whole light chain = pAzF conjugated with BCN-PEG4-FITC, Bivalent, distal sites; also called LS202/HK136) VH: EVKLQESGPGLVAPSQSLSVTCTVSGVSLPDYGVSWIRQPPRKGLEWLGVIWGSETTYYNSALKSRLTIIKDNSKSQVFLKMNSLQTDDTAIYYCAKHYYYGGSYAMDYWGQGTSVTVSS VL: DIQMTQTTSSLSASLGDRVTISCRASQDISKYLNWYQQKPDGTVKLLIYHTSRLHSGVPSRFSGSGSGTDYSLTISNLEQEDIATYFCQQGNTLPYTFGGGTKLEIKR")
2.9
>>> recorded_number("anti-CD19 (FMC63) Fab B-FITC (heavy chain S74) (Fab, V domains shown, position 74 = pAzF conjugated with BCN-PEG4-FITC, Monovalent, proximal site; also called HS74) VH: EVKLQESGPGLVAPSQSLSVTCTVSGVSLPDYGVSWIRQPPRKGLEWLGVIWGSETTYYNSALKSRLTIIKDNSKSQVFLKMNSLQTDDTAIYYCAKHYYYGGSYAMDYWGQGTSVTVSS VL: DIQMTQTTSSLSASLGDRVTISCRASQDISKYLNWYQQKPDGTVKLLIYHTSRLHSGVPSRFSGSGSGTDYSLTISNLEQEDIATYFCQQGNTLPYTFGGGTKLEIKR")
9.1
>>> recorded_number("anti-CD19 (FMC63) Fab D-FITC (heavy chain A121) (Fab, V domains shown, position 121 of the whole heavy chain = pAzF conjugated with BCN-PEG4-FITC, Monovalent, medial site; also called HA121) VH: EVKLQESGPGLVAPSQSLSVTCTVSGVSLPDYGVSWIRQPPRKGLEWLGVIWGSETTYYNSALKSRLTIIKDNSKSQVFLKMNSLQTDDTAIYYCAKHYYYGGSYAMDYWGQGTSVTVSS VL: DIQMTQTTSSLSASLGDRVTISCRASQDISKYLNWYQQKPDGTVKLLIYHTSRLHSGVPSRFSGSGSGTDYSLTISNLEQEDIATYFCQQGNTLPYTFGGGTKLEIKR")
9.5
>>> recorded_number("anti-CD19 (FMC63) Fab E-FITC (light chain S202) (Fab, V domains shown, position 202 of the whole light chain = pAzF conjugated with BCN-PEG4-FITC, Monovalent, distal site; also called LS202) VH: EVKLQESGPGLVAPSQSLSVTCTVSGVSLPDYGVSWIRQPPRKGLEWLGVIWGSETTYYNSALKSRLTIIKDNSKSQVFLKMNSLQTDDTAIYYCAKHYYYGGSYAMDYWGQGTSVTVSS VL: DIQMTQTTSSLSASLGDRVTISCRASQDISKYLNWYQQKPDGTVKLLIYHTSRLHSGVPSRFSGSGSGTDYSLTISNLEQEDIATYFCQQGNTLPYTFGGGTKLEIKR")
7

Looking up anti-CD19 (FMC63) Fab C-FITC (light chain T109) (Fab, V domains shown, position 109 of the whole light chain = pAzF conjugated with BCN-PEG4-FITC, Monovalent, medial site; also called LT109) VH: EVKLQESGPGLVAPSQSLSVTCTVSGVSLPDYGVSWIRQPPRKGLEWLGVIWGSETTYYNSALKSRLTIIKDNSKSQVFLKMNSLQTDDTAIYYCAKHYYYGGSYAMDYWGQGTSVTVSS VL: DIQMTQTTSSLSASLGDRVTISCRASQDISKYLNWYQQKPDGTVKLLIYHTSRLHSGVPSRFSGSGSGTDYSLTISNLEQEDIATYFCQQGNTLPYTFGGGTKLEIKR , I see its EC50 listed as 6.4

Looking up random anti-CD19 (FMC63) Fab FITC conjugate (Fab, V domains shown, FITC-PEG4 by NHS chemistry at the N-terminal amino group (~58% of the conjugates); FITC-PEG4 by NHS chemistry at lysines, largely K31 (~20%) and K141 (~68.4%); paragraph 560 prints positions 31 and 145, Heterogeneous mixture, average FITC to antibody ratio of 2; also called random conjugate; Random (DAR 2)) VH: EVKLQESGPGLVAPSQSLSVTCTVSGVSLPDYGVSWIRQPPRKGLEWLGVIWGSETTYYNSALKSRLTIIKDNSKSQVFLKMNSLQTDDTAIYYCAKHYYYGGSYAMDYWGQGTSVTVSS VL: DIQMTQTTSSLSASLGDRVTISCRASQDISKYLNWYQQKPDGTVKLLIYHTSRLHSGVPSRFSGSGSGTDYSLTISNLEQEDIATYFCQQGNTLPYTFGGGTKLEIKR , I see its EC50 listed as 2.9
